Tested on: Plasma
Test: Inhibition of ADP-induced platelet aggregation in rabbit plasma at 200 uM
Format: functional, Oryctolagus cuniculus
Set-up: scale not given: the % may be the effect or the level left
Item-by-item account of Activity
Answer with the value and then the unit.

Answered examples (6):
compound_structure=Cc1nc(C)c(CN2CCN(c3ccccc3)CC2)nc1C reported=21.43%
compound_structure=CCc1ccc(CN2CCN(Cc3nc(C)c(C)nc3C)CC2)cc1 reported=13.56%
compound_structure=Cc1nc(C)c(CN2CCN(Cc3ccccc3C#N)CC2)nc1C reported=12.16%
compound_structure=Cc1nc(C)c(CN2CCN(Cc3ccc(C#N)cc3)CC2)nc1C reported=11.37%
compound_structure=Cc1nc(C)c(CN2CCN(C(c3ccc(F)cc3)c3ccc(F)cc3)CC2)nc1C reported=6.32%
compound_structure=Cc1nc(C)c(CN2CCN(Cc3ccccc3Cl)CC2)nc1C reported=9.67%

Prompt: # get_value(readout='Activity', item= Cc1nc(C)c(CN2CCNCC2)nc1C )
Response: 11.36%

Prompt: # get_value(readout='Activity', item= Cc1nc(C)c(CN2CCN(CCc3ccccc3)CC2)nc1C )
Response: 9.77%

Prompt: # get_value(readout='Activity', item= Cc1nc(C)c(CN2CCN(Cc3ccc(Br)cc3)CC2)nc1C )
Response: 13.26%
